test: chemical genetic growth profiling, strain panel (AID 1159580);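 also: tested at 20 µM; growth read once vehicle control cultures reached saturation at 30 °C; 1 = growth at the plate median or of vehicle wells; lower values mean less growth of the strain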; conditions: S. cerevisiae deletion strains, growth OD, locus YER015W, strain faa2, hits give low values
Screen size: about 5,500 compounds; about 2,000 (36%) were called active. Not shown: some 18% with an inconclusive outcome. Some of the results follow.
This section presents molecules with their documented normalized growth values.
Lab note: jot down the number only; don't add units.

# normalized growth lookup, item "COc1ccccc1/C=C\C(=O)O" 1.01

# normalized growth lookup, item NC(=O)NCCCC(N)C(=O)O (stereo unspecified) 1

# normalized growth lookup, item CC(CC(C(N)=O)(c1ccccc1)c1ccccc1)N(C)C (stereo unspecified) 1.01

* * *

test: chemical genetic growth profiling, strain panel (AID 1159580);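 also: tested at 20 µM; growth read once vehicle control cultures reached saturation at 30 °C; 1 = growth at the plate median or of vehicle wells; lower values mean less growth of the strain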; conditions: S. cerevisiae deletion strains, growth OD, locus YDR001C, strain nth1, hits give low values
About 2,000 (36%) of roughly 5,500 compounds were called active. Roughly 18% stayed inconclusive and do not appear here. The list shows a part of the results.
property: normalized growth
Lab note: jot down the number only; don't add units.

# normalized growth lookup, item OC1CC2CCCC(C1)N2Cc1ccccc1 (stereo not given) 1

# normalized growth lookup, item "COc1c2ccoc2cc2oc(=O)ccc12" 0.976

# normalized growth lookup, item CCN[C@@H]1C[C@H](N)[C@@H](O[C@H]2OC(CN)=CC[C@H]2N)[C@H](O)[C@H]1OC1OC[C@](C)(O)[C@H](NC)[C@H]1O (stereo not given in full) 0.985

# normalized growth lookup, item C=CC1C2=CCOC(=O)C2=COC1OC1OC(CO)C(O)C(O)C1O (stereo not given) 1.02

New cases:
# normalized growth lookup, item "O=c1ccc2c(O)c3ccoc3cc2o1" 0.977

* * *

experiment: chemical genetic growth profiling, strain panel (AID 1159580);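 also: tested at 20 µM; growth read once vehicle control cultures reached saturation at 30 °C; 1 = growth at the plate median or of vehicle wells; lower values mean less growth of the strain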; conditions: S. cerevisiae deletion strains, growth OD, locus YHR030C, strain SLT2
Hit rate of the full screen: of about 5,500 compounds, about 2,000 (36%) were called active. Roughly 18% stayed inconclusive and do not appear here. No stated cut-off is given here; in the data, active means normalized growth mostly below about 0.91 (no sharp cut-off); inconclusive means no clear call, values can overlap the other calls; inactive means mostly above about 0.92. This is one part of the list.
Mark one answer only. Choices: true for active, false for inactive

Below, 5 molecules whose answers are already recorded.
For this molecule, state the assay outcome: "O=C1Nc2ccccc2/C1=C\c1cccc([N+](=O)[O-])c1" false

For this molecule, state the assay outcome: "O=C1NC(=O)/C(=C/c2ccc(OS(=O)(=O)c3ccc(Cl)cc3)cc2)N1" false

For this molecule, state the assay outcome: "COc1ccc(-c2oc3cc(O[C@H]4O[C@H](CO)[C@@H](O)[C@H](O)[C@H]4O)c(OC)c(O)c3c(=O)c2OC)cc1O" false

For this molecule, state the assay outcome: Oc1cc2c(cc1O)C1c3ccc(O)c(O)c3OCC1(O)C2 (stereo unspecified) false

For this molecule, state the assay outcome: NC(=O)NCC(N)C(=O)O (stereo unspecified) false

# next molecule below
For this molecule, state the assay outcome: CC12CCC3c4ccc(OCc5ccccc5)cc4CCC3C1C[C@@H](O)[C@@H]2O (stereo partly specified) true

* * *

assay: chemical genetic growth profiling, strain panel (AID 1159580);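 also: tested at 20 µM; growth read once vehicle control cultures reached saturation at 30 °C; 1 = growth at the plate median or of vehicle wells; lower values mean less growth of the strain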; conditions: S. cerevisiae deletion strains, growth OD, locus YMR219W, strain ESC1
Hit rate of the full screen: of about 5,500 compounds, about 2,000 (36%) were called active. Inconclusive results (about 18%) are left out. No stated cut-off is given here; in the data, active means normalized growth mostly below about 0.91 (no sharp cut-off); inconclusive means no clear call, values can overlap the other calls; inactive means mostly above about 0.92. Some of the results follow.
Mark one answer only. Choices: Y for active, N for inactive

Below, 3 compounds whose answers are already recorded.
For this compound, state the assay outcome: "Brc1ccc(-c2ccn[nH]2)s1" N

For this compound, state the assay outcome: "Cc1ccc(-c2csc(-c3ccc(Oc4ccc(C(F)(F)F)cn4)cc3)n2)c(C)c1" N

For this compound, state the assay outcome: "C/C(=N/NC(=S)Nc1ccc(C(C)C)cc1)c1ccco1" Y

New cases:
For this compound, state the assay outcome: "CCOC(=O)N/N=C\c1ccccc1OCC" N

For this compound, state the assay outcome: "O=C1NC(=O)/C(=C/c2ccc(OS(=O)(=O)c3ccc(Cl)cc3)cc2)N1" N

For this compound, state the assay outcome: CC(C)CC1NC(=O)NC1=O (stereo not drawn) N

For this compound, state the assay outcome: "COc1ccc(CCNc2ccc(C(F)(F)F)cc2N)cc1OC" N

For this compound, state the assay outcome: "COCCCNC(=S)N/N=C\c1cccc(OC)c1O" N
